Recorded values, source ChEMBL document CHEMBL3124814.

Test system: Hepatitis C virus
Experiment: Antiviral activity against HCV1b infected in human NNC2 cells assessed as inhibition of viral RNA replication after 3 days by RT-PCR analysis
Assay type: functional, organism-based, Hepacivirus hominis
Details: genotype 1b, NNC2, 72 h
Attribute measured: EC50 (nM)
Numbers only, in nM.

Incoming: Find the measured EC50 of Cc1ccc(NC(=O)c2c(NO)cc(-c3ccccc3)oc2=O)cc1 and report it.
Outgoing: 77

----------
Test: Cytotoxicity against human NNC2 cells assessed as GAPDH RNA level
Type: cell-based
Attribute measured: CC50

Incoming: # return recorded CC50 for input Cc1ccc(NC(=O)c2c(NO)cc(-c3ccccc3)oc2=O)cc1
Outgoing: > 10 µM

----------
System: Hepatitis C virus
Test: Antiviral activity against HCV1b infected in human HuH7 cells expressing luciferase reporter gene assessed as reduction of luciferase activity after 3 days
Format: functional, organism-based, Hepacivirus hominis
Conditions: genotype 1b, Huh-7, 72 h
Field: EC50. Provide a value for each of the molecules that follow.
Numbers only, in nM.

Past entries and their recorded results:
[
  {
    "Input smiles": "CNC(=O)c1c(NO)cc(-c2ccc(Cl)cc2)oc1=O",
    "EC50 [nM]": 780
  },
  {
    "Input smiles": "Cc1ccc(NC(=O)c2c(NO)cc(-c3ccccc3)oc2=O)cc1",
    "EC50 [nM]": 180
  }
]

Alright, here's another molecule for you.
Incoming: With Hepatitis C virus as the test system, provide measured EC50 for this molecule: O=C(Nc1ccccc1)c1c(NO)cc(-c2ccc(F)cc2)oc1=O
Outgoing: 1060

----------
Test system: Hepatitis C virus
Test: Antiviral activity against HCV1b infected in human HuH7 cells expressing luciferase reporter gene assessed as reduction of luciferase activity after 3 days
Assay type: functional, organism-based, Hepacivirus hominis
Details: genotype 1b, Huh-7, 72 h
Attribute measured: EC50
Please format your answer as a value with the unit trailing.

Give EC50 for each listed item.
1. CNC(=O)c1c(NO)cc(-c2ccc(C)cc2)oc1=O
2. O=C(Nc1ccccc1)c1c(NO)cc(-c2ccccc2)oc1=O

Outgoing:
["1420 nM", "350 nM"]

----------
Tested on: Hepatitis C virus
Assay: Antiviral activity against HCV1b infected in human HuH7 cells expressing luciferase reporter gene assessed as reduction of luciferase activity after 3 days
Type: functional, organism-based, Hepacivirus hominis
Details: genotype 1b, Huh-7, 72 h
Attribute measured: EC50

[
  {
    "Input smiles": "COC(=O)c1ccc(NC(=O)c2c(NO)cc(-c3ccccc3)oc2=O)cc1",
    "EC50": "0.33 µM"
  },
  {
    "Input smiles": "Cc1ccc(-c2cc(NO)c(C(=O)Nc3ccccc3)c(=O)o2)cc1",
    "EC50": "1.45 µM"
  }
]

Incoming: Supply recorded EC50 for COc1ccc(-c2cc(NO)c(C(=O)Nc3ccc(C)cc3)c(=O)o2)cc1 here.
Outgoing: 1.6 µM
